Data credit: patent US12564638B2

# System: BT474 cells (HER2 positive breast cancer cells)
# protocol: Cell viability assay (CCK8), BT474 cells
# Assay type: cell-based
# settings: Homo sapiens, BT-474, Table 10, BT474, 72 hours, read-out: IC50 (half inhibitory concentration)
pIC50: −log10 of the molar value.
property.name: pIC50

C=CC(=O)Nc1cc2c(Nc3ccc(F)c(Cl)c3)ncnc2cc1OCCCN1CCC(N2CCN(C(=O)CCCCCCNc3cccc4c3C(=O)N(C3CCC(=O)NC3=O)C4=O)CC2)CC1 (stereo not drawn) ... 7.84

(P) C=CC(=O)Nc1cc2c(Nc3ccc(F)c(Cl)c3)ncnc2cc1OCCCN1CCN(C(=O)CNc2cccc3c2C(=O)N(C2CCC(=O)NC2=O)C3=O)CC1 (stereo not drawn)
(Q) COc1cc2ncnc(Nc3ccc(F)c(Cl)c3)c2cc1NC(=O)/C=C/CN1CCC(NC(=O)CCCCCSc2cccc3c2CN(C2CCC(=O)NC2=O)C3=O)CC1 (stereo not drawn)
Q) // which entry has the larger pIC50 value, P or Q ? Lab log: write the label of the selected item as the result.
A) P

---

# System: PC9 cells (EGFR Exon 19 del, non-small cell lung cancer cells)
# protocol: Cell viability assay (WST/CCK8), PC9 cells
# Format: cell-based
# settings: Homo sapiens, PC-9; PC9 (Exon19 Del), 72 hours, WST (CCK8); read-out: IC50 (half inhibitory concentration)
# Excerpt: The cell lines with abnormal EGFR expression used are as follows: • HCC827 cells (EGFR Exon19 del, non-small cell lung cancer cells); • PC9 cells (EGFR Exon 19 del, non-small cell lung cancer cells); • PC9BracA1 (EGFR Exon 19 del+T790M, non-small cell lung cancer cells) • H1975 (EGFR Exon T790M+L858R mutation, non-small cell lung cancer cell line) • BT474 cells (HER2 positive breast cancer cells) […]
property.name: IC50 (nM)

COc1cc2ncnc(Nc3ccc(F)c(Cl)c3)c2cc1NC(=O)/C=C/CN1CCC(N2CCN(C(=O)CNc3cccc4c3C(=O)N(C3CCC(=O)NC3=O)C4=O)CC2)CC1 (centres unmarked) ... 6.7

(P) COc1cc2ncnc(Nc3ccc(F)c(Cl)c3)c2cc1NC(=O)/C=C/CN1CCN(C(=O)CCOCCNc2cccc3c2C(=O)N(C2CCC(=O)NC2=O)C3=O)CC1 (centres unmarked)
(Q) COc1cc2ncnc(Nc3ccc(F)c(Cl)c3)c2cc1NC(=O)/C=C/CN1CCN(C(=O)CCSc2cccc3c2CN(C2CCC(=O)NC2=O)C3=O)CC1 (centres unmarked)
(R) COc1cc2ncnc(Nc3ccc(F)c(Cl)c3)c2cc1NC(=O)/C=C/CN1CCC(N2CCN(C(=O)CSc3cccc4c3CN(C3CCC(=O)NC3=O)C4=O)CC2)CC1 (centres unmarked)
Q) Reorder: IC50, max to min. Reply format: the labels, ordered as requested.
A) P, Q, R
(P: 57 nM, Q: 21.7 nM, R: 11.3 nM)

(P) COc1cc2ncnc(Nc3ccc(F)c(Cl)c3)c2cc1NC(=O)/C=C/CN1CCC(NC(=O)CCOCCOCCNc2cccc3c2C(=O)N(C2CCC(=O)NC2=O)C3=O)CC1 (centres unmarked)
(Q) COc1cc2ncnc(Nc3ccc(F)c(Cl)c3)c2cc1NC(=O)/C=C/CN1CCC(N2CCN(C(=O)CCCCCCNc3cccc4c3C(=O)N(C3CCC(=O)NC3=O)C4=O)CC2)CC1 (centres unmarked)
(R) COc1cc2ncnc(Nc3ccc(F)c(Cl)c3)c2cc1NC(=O)/C=C/CN1CCC(N2CCN(C(=O)CCCCCCSc3cccc4c3C(=O)N(C3CCC(=O)NC3=O)C4=O)CC2)CC1 (centres unmarked)
(S) COc1cc2ncnc(Nc3ccc(F)c(Cl)c3)c2cc1NC(=O)/C=C/CN1CCN(C(=O)CCCCCCNc2cccc3c2C(=O)N(C2CCC(=O)NC2=O)C3=O)CC1 (centres unmarked)
Q) Reorder: IC50, max to min. Reply format: the labels, ordered as requested.
A) P, S, R, Q

(A) COc1cc2ncnc(Nc3ccc(F)c(Cl)c3)c2cc1NC(=O)/C=C/CN1CCC(N2CCN(C(=O)COc3cccc4c3CN(C3CCC(=O)NC3=O)C4=O)CC2)CC1 (centres unmarked)
(B) COc1cc2ncnc(Nc3ccc(F)c(Cl)c3)c2cc1NC(=O)/C=C/CN1CCC(NC(=O)CCCCCNc2cccc3c2C(=O)N(C2CCC(=O)NC2=O)C3=O)CC1 (centres unmarked)
Q) // which entry has the larger IC50 value, A or B ? Lab log: write the label of the selected item as the result.
A) A
(A: 36 nM, B: 0.6 nM)
